Where do the numbers come from? From PubChem BioAssay AID2060512.

- System: 186277-243-T-J2-PDC complex spheroid viability
- TEST NAME: Anticancer human tumor 186277-243-T-J2-PDC patient-derived colon adenocarcinoma cell line growth inhibition [GQUAD]; active = viability on the fitted dose curve at most 10% of control; inactive = the rest
- MEASUREMENT CONDITIONS: second compound 0.316 µM; first compound 0.1 µM
Bench note: report the call from true (1) (active), false (0) (inactive)

# outcome recorded in this test, key = CC(=O)O[C@H]1C(=O)[C@@]2(C)[C@H]([C@H](OC(=O)c3ccccc3)[C@]3(O)C[C@H](OC(=O)[C@H](O)[C@@H](NC(=O)c4ccccc4)c4ccccc4)C(C)=C1C3(C)C)[C@]1(OC(C)=O)CO[C@@H]1C[C@@H]2O + Cc1[nH]c2ccc(F)cc2c1-c1nc2c3cccnc3c3ncccc3c2[nH]1
true (1)

# outcome recorded in this test, key = COc1cccc2c1C(=O)c1c(O)c3c(c(O)c1C2=O)CC(O)(C(=O)CO)CC3OC1CC(N)C(O)C(C)O1 (stereo not given) + Cc1cnc(CNC(=O)c2c(=O)c3ccc(N4CCCN(C)CC4)nc3n3c2sc2ccccc23)cn1
false (0)

# outcome recorded in this test, key = O=C(c1cc(Cc2n[nH]c(=O)c3ccccc23)ccc1F)N1CCN(C(=O)C2CC2)CC1 + Cc1[nH]c2ccc(F)cc2c1-c1nc2c3cccnc3c3ncccc3c2[nH]1
false (0)

# outcome recorded in this test, key = C#Cc1c(F)ccc2cc(O)cc(-c3ncc4c(N5CC6CCC(C5)N6)nc(OCC56CCCN5CC(F)C6)nc4c3F)c12 (stereo not given) + Cc1[nH]c2ccc(F)cc2c1-c1nc2c3cccnc3c3ncccc3c2[nH]1
false (0)

# outcome recorded in this test, key = CC(C)(O)C1CCC(Nc2ccc3ncc(-c4cccc(C(F)(F)F)c4)n3n2)CC1 (stereo not given) + Cc1cnc(CNC(=O)c2c(=O)c3ccc(N4CCCN(C)CC4)nc3n3c2sc2ccccc23)cn1
false (0)

# outcome recorded in this test, key = CC(C)n1c(=O)n(C)c2cnc3cc(F)c(-c4ccc(OCCCN5CCCCC5)nc4)cc3c21 + CN(C)c1ccc(Nc2c3ccc(NC(=O)CCN4CCCC4)cc3nc3cc(NC(=O)CCN4CCCC4)ccc23)cc1
false (0)

# outcome recorded in this test, key = C=CCn1c(=O)c2cnc(Nc3ccc(N4CCN(C)CC4)cc3)nc2n1-c1cccc(C(C)(C)O)n1 + Cc1cnc(CNC(=O)c2c(=O)c3ccc(N4CCCN(C)CC4)nc3n3c2sc2ccccc23)cn1
false (0)

# outcome recorded in this test, key = O=c1[nH]cc(F)c(=O)[nH]1 + Cc1cnc(CNC(=O)c2c(=O)c3ccc(N4CCCN(C)CC4)nc3n3c2sc2ccccc23)cn1
false (0)

# outcome recorded in this test, key = CC(C)(O)C1CCC(Nc2ccc3ncc(-c4cccc(C(F)(F)F)c4)n3n2)CC1 (stereo not given) + CN(C)c1ccc(Nc2c3ccc(NC(=O)CCN4CCCC4)cc3nc3cc(NC(=O)CCN4CCCC4)ccc23)cc1
false (0)

# outcome recorded in this test, key = CC1COCCN1c1cc(-c2ccnn2C)c2ccnc(-c3ccn[nH]3)c2n1 (stereo not given) + Cc1cnc(CNC(=O)c2c(=O)c3ccc(N4CCCN(C)CC4)nc3n3c2sc2ccccc23)cn1
false (0)

---

- Tested on: 186277-243-T-J2-PDC complex spheroid viability
- TEST NAME: Anticancer human tumor 186277-243-T-J2-PDC cell line growth inhibition [GQUAD];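 also: spheroids exposed to drugs for 7 days; 100% = DMSO vehicle control viability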
- MEASUREMENT CONDITIONS: second compound 3.16 µM; first compound 0.0316 µM; hits give low values
ASSAY READOUT: viability, T/C (%)
Unit % implied. Number only.

For the molecule C#Cc1c(F)ccc2cc(O)cc(-c3ncc4c(N5CC6CCC(C5)N6)nc(OCC56CCCN5CC(F)C6)nc4c3F)c12 (stereo not given) + CN(C)c1ccc(Nc2c3ccc(NC(=O)CCN4CCCC4)cc3nc3cc(NC(=O)CCN4CCCC4)ccc23)cc1 , what viability, T/C is on record?
73.9

For the molecule CC(C)n1c(=O)n(C)c2cnc3cc(F)c(-c4ccc(OCCCN5CCCCC5)nc4)cc3c21 + Cc1cnc(CNC(=O)c2c(=O)c3ccc(N4CCCN(C)CC4)nc3n3c2sc2ccccc23)cn1 , what viability, T/C is on record?
43.7

For the molecule CC1COCCN1c1cc(-c2ccnn2C)c2ccnc(-c3ccn[nH]3)c2n1 (stereo not given) + Cc1[nH]c2ccc(F)cc2c1-c1nc2c3cccnc3c3ncccc3c2[nH]1 , what viability, T/C is on record?
59.7

For the molecule C#Cc1c(F)ccc2cc(O)cc(-c3ncc4c(N5CC6CCC(C5)N6)nc(OCC56CCCN5CC(F)C6)nc4c3F)c12 (stereo not given) + Cc1[nH]c2ccc(F)cc2c1-c1nc2c3cccnc3c3ncccc3c2[nH]1 , what viability, T/C is on record?
56

For the molecule O=C(NO)c1cnc(N2CCN(S(=O)(=O)c3ccc4ccccc4c3)CC2)nc1 + Cc1[nH]c2ccc(F)cc2c1-c1nc2c3cccnc3c3ncccc3c2[nH]1 , what viability, T/C is on record?
100

---

- System: 186277-243-T-J2-PDC complex spheroid viability
- TEST NAME: Anticancer human tumor 186277-243-T-J2-PDC cell line growth inhibition [GQUAD];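 also: spheroids exposed to drugs for 7 days; 100% = DMSO vehicle control viability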
- MEASUREMENT CONDITIONS: second compound 0.316 µM; first compound 0.0316 µM; hits give low values
- Source text: DNA G-quadruplex Stabilizer Agents in Combinations in Complex Spheroids A high-throughput screen of multi-cell type tumor spheroids was designed to identify active combinations of DNA G-quadruplex stabilizer agents and targeted small molecules. […] Compounds. […] If the clinical Cmax for an agent had not been determined, the highest concentration tested was 10 microM. […]
ASSAY READOUT: viability, T/C

Which viability, T/C is reported with 186277-243-T-J2-PDC complex spheroid viability for this entry: CC1COCCN1c1cc(-c2ccnn2C)c2ccnc(-c3ccn[nH]3)c2n1 (stereo unspecified) + Cc1[nH]c2ccc(F)cc2c1-c1nc2c3cccnc3c3ncccc3c2[nH]1 ?
72.2%

Which viability, T/C is reported with 186277-243-T-J2-PDC complex spheroid viability for this entry: C#Cc1c(F)ccc2cc(O)cc(-c3ncc4c(N5CC6CCC(C5)N6)nc(OCC56CCCN5CC(F)C6)nc4c3F)c12 (stereo unspecified) + Cc1[nH]c2ccc(F)cc2c1-c1nc2c3cccnc3c3ncccc3c2[nH]1 ?
78.1%

Which viability, T/C is reported with 186277-243-T-J2-PDC complex spheroid viability for this entry: COc1ccc([C@@H](O)c2cc(-c3ncnc4cc(N5CCOCC5)ccc34)c(F)cc2Cl)nn1 + Cc1cnc(CNC(=O)c2c(=O)c3ccc(N4CCCN(C)CC4)nc3n3c2sc2ccccc23)cn1 ?
72.3%

Which viability, T/C is reported with 186277-243-T-J2-PDC complex spheroid viability for this entry: C=CCn1c(=O)c2cnc(Nc3ccc(N4CCN(C)CC4)cc3)nc2n1-c1cccc(C(C)(C)O)n1 + Cc1[nH]c2ccc(F)cc2c1-c1nc2c3cccnc3c3ncccc3c2[nH]1 ?
108%

Which viability, T/C is reported with 186277-243-T-J2-PDC complex spheroid viability for this entry: CCCS(=O)(=O)Nc1ccc(F)c(C(=O)c2c[nH]c3ncc(-c4ccc(Cl)cc4)cc23)c1F + Cc1[nH]c2ccc(F)cc2c1-c1nc2c3cccnc3c3ncccc3c2[nH]1 ?
111%

Which viability, T/C is reported with 186277-243-T-J2-PDC complex spheroid viability for this entry: Cc1[nH]c2ccccc2c1CCNCc1ccc(/C=C/C(=O)NO)cc1 + Cc1[nH]c2ccc(F)cc2c1-c1nc2c3cccnc3c3ncccc3c2[nH]1 ?
71.2%

Which viability, T/C is reported with 186277-243-T-J2-PDC complex spheroid viability for this entry: CC[C@@]1(O)C(=O)OCc2c1cc1n(c2=O)Cc2cc3c(CN(C)C)c(O)ccc3nc2-1 + Cc1cnc(CNC(=O)c2c(=O)c3ccc(N4CCCN(C)CC4)nc3n3c2sc2ccccc23)cn1 ?
70.7%

Which viability, T/C is reported with 186277-243-T-J2-PDC complex spheroid viability for this entry: O=C(c1cc(Cc2n[nH]c(=O)c3ccccc23)ccc1F)N1CCN(C(=O)C2CC2)CC1 + CN(C)c1ccc(Nc2c3ccc(NC(=O)CCN4CCCC4)cc3nc3cc(NC(=O)CCN4CCCC4)ccc23)cc1 ?
97.7%

Which viability, T/C is reported with 186277-243-T-J2-PDC complex spheroid viability for this entry: C=CC(=O)N1CCN(c2nc(=O)n(-c3c(C)ccnc3C(C)C)c3nc(-c4c(O)cccc4F)c(F)cc23)C(C)C1 (stereo unspecified) + CN(C)c1ccc(Nc2c3ccc(NC(=O)CCN4CCCC4)cc3nc3cc(NC(=O)CCN4CCCC4)ccc23)cc1 ?
104%

Which viability, T/C is reported with 186277-243-T-J2-PDC complex spheroid viability for this entry: CC1COCCN1c1cc(C2(O)CC3CCC(C2)O3)c2cnn(-c3ccn[nH]3)c2n1 (stereo unspecified) + Cc1[nH]c2ccc(F)cc2c1-c1nc2c3cccnc3c3ncccc3c2[nH]1 ?
31.9%

Which viability, T/C is reported with 186277-243-T-J2-PDC complex spheroid viability for this entry: CCc1c2c(nc3ccc(O)cc13)-c1cc3c(c(=O)n1C2)COC(=O)[C@]3(O)CC + Cc1[nH]c2ccc(F)cc2c1-c1nc2c3cccnc3c3ncccc3c2[nH]1 ?
33.9%
